# Tested on: human Lung LUAD cell line
# ASSAY PROTOCOL: CCK8 cell proliferation, MY33-3, lung adenocarcinoma cell line
# Format: cell-based
# MEASUREMENT CONTEXT: one human Lung LUAD cell line; 72 hours
OBSERVATION TYPE: pIC50
Schema: pIC50 number; meaning minus log10 of the concentration expressed in molar units.

Exercise: Jot down pIC50 (human Lung LUAD cell line) of FC(F)(F)Sc1ccc(CNCc2ccc(SC(F)(F)F)cc2)cc1 .
Solution: 4.60

###

# Tested on: human normal lung epithelial cell line BEAS-2B
# ASSAY PROTOCOL: CCK8 cell proliferation, MY33-3, BEAS-2B
# Format: cell-based
# MEASUREMENT CONTEXT: 72 hours
OBSERVATION TYPE: IC50 (µM)
Give your result in µM as a bare value.

Exercise: Provide only the value of recorded IC50 for FC(F)(F)Sc1ccc(CNCc2ccc(SC(F)(F)F)cc2)cc1
Solution: 28

Taken from patent US20250327133A1.
